Tested on: CSM14.1 TNF/CHX-induced death, ATPlite luminescence, 24 h
Assay: TNF extrinsic death rescue in CSM14.1 – cell-based, undifferentiated CSM14.1, ATP luminescence, selectivity assay for ER stress death inhibitor project, SAR follow-up (AID 1350)
Conditions: at 25 µM; stronger effect = higher value
Consider the following compounds; for each one, report its survival.
Answers are plain numbers, in %.

>>> value_reported("COc1ccc(C2CC(=O)C3=C(C2)Nc2ccccc2NC3c2cccc(Oc3ccccc3)c2)cc1OC (stereo not given)")
39
>>> value_reported("COc1ccc(C2CC(=O)C3=C(C2)Nc2ccccc2NC3c2cccc(C(F)(F)F)c2)cc1OC (stereo not given)")
37
>>> value_reported("CCOc1cccc(C2Nc3ccccc3NC3=C2C(=O)CC(c2ccc(OC)cc2)C3)c1 (stereo not given)")
40
>>> value_reported("COc1ccc(C2CC(=O)C3=C(C2)Nc2ccccc2NC3c2ccccc2C(F)(F)F)cc1OC (stereo not given)")
37

Kindly consider the entry below.
survival for COc1ccc(C2CC(=O)C3=C(C2)Nc2ccccc2NC3c2cc(C)ccc2C)cc1 (stereo not given) is 39

---

Tested on: CSM14.1 TNF/CHX-induced death, ATPlite luminescence, 24 h
Test: TNF extrinsic death rescue in CSM14.1 – cell-based, undifferentiated CSM14.1, ATP luminescence, selectivity assay for ER stress death inhibitor project, SAR follow-up (AID 1350)
Conditions: at 25 µM; stronger effect = higher value
Binary classification by survival, with 40% as an inclusive lower bound for Met; all other cases are Not met.

>>> group_label("CC1(C)CC(=O)C2=C(C1)Nc1ccccc1NC2c1ccc(-c2ccccc2)cc1 (stereo unspecified)")
"Met"
>>> group_label("CCCOc1ccc(C2Nc3ccccc3NC3=C2C(=O)CC(c2ccc(OC)c(OC)c2)C3)cc1 (stereo unspecified)")
"Met"

Please tell me: is the molecule CSc1ccc(C2Nc3ccccc3NC3=C2C(=O)CC(c2ccccc2)C3)cc1 (stereo unspecified) at or over 40% in terms of survival?
Met

Please indicate if the recorded survival for CCOc1cc(C2Nc3ccccc3NC3=C2C(=O)CC(c2ccc(OC)cc2)C3)cc(Cl)c1O (stereo unspecified) meets or exceeds 40%.
Not met

State whether the measured survival reaches 40%, counting equality as reaching it, for COc1ccc(C2CC(=O)C3=C(C2)Nc2ccccc2NC3c2cccc(Br)c2)cc1OC (stereo unspecified)
Not met

Could you verify whether the entry O=C1CC(c2ccccc2)CC2=C1C(c1c(F)cccc1Cl)Nc1ccccc1N2 (stereo unspecified) shows survival of no less than 40%?
Not met
